target: CRM1(E571K) (Homo sapiens, UniProt O14980, E571K); assay type: binding; conditions: ratio of Kds from differential photobleaching assays
Sequence (O14980 whole entry E571K, other chains not shown): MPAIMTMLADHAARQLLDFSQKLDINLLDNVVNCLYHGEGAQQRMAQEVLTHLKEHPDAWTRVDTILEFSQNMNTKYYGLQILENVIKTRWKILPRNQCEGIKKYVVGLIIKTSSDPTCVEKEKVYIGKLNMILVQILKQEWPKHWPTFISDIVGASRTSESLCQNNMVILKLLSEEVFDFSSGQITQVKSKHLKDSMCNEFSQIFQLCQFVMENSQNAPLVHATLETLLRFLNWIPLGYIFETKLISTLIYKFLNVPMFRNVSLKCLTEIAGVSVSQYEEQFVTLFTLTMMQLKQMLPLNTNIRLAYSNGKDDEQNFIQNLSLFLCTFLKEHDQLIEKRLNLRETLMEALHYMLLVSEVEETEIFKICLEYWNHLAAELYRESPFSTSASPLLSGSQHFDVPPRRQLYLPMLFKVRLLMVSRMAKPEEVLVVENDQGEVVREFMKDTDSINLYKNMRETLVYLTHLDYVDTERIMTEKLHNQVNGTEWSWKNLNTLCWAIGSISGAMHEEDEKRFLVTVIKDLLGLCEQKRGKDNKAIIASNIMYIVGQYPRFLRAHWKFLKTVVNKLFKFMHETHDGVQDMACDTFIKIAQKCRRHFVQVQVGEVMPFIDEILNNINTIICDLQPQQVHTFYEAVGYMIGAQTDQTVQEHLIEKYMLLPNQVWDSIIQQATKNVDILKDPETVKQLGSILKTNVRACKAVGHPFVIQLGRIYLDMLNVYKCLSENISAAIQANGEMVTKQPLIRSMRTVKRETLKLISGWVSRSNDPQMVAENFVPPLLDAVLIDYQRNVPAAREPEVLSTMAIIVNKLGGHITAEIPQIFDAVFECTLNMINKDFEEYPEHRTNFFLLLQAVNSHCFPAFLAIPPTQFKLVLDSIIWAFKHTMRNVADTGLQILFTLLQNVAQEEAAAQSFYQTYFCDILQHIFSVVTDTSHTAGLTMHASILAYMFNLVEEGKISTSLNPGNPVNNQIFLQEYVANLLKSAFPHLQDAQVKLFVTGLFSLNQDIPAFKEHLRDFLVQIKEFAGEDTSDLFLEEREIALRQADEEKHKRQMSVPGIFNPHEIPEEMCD
Assign labels as follows, please: True for Kd,E571K/Kd,WT below 3; False for Kd,E571K/Kd,WT equal to or exceeding 3.

Example cases with answers are listed next.
{"columns": ["ORDERED_RESIDUES", "CATEGORY_LABEL"],
 "data": [
  ["SVPEVEALLARLRAL [mDia2^NES]", "True"],
  ["YERVVSPGIDLSGLTLQ [Smad4^NES]", "True"],
  ["SLVLLPFDDLKISG [Iκβε^NES]", "False"]
]}

**Q:** Is Kd,E571K/Kd,WT strictly under 3 for the entry SVEEVEAGLKGLKVDQQVK [eIF4E-transporter (4E-T^NES)] ?
**A:** False

**Q:** Quick one: RELDELMASLSDFKFMA [Paxillin^NES]
**A:** False

**Q:** Quick one: LQLPPLERLTLDC [HIV Rev^NES]
**A:** True
